molecular target: hMC4-R (Homo sapiens (Human), UniProt P32245); experiment: High and low density hMC4-R functional assay (cAMP, HEK293-T-REx-MC4-R cells); assay type: cell-based; conditions: 0.1 ng/mL Doxycycline (low density hMC4-R system); NDP-α-MSH = 100%; read-out: Intrinsic Activity (%)
Sequence (P32245 whole entry): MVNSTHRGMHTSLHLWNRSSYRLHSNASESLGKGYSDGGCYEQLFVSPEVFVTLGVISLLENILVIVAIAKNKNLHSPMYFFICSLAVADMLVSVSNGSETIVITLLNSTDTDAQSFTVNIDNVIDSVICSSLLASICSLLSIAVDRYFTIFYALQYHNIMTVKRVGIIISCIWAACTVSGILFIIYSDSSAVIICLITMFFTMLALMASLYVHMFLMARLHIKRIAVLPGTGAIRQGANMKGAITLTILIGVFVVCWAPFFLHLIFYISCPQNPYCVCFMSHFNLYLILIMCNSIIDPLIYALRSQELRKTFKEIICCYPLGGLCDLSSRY
observed.property: Emax
Answer with the number, then the unit.

structure.notation	recorded.value
COc1ccc(C[C@H]2NC(=O)[C@H](CCN)NC(=O)[C@@H](NC(=O)[C@H](CCCNC(=N)N)NC(C)=O)CCC(=O)NCCC[C@@H](C(N)=O)NC(=O)[C@H](Cc3c[nH]c4ccccc34)NC(=O)[C@H](CCCNC(=N)N)NC2=O)cc1	28%
CC(=O)N[C@@H](CCCNC(=N)N)C(=O)N[C@H]1CCCNC(=O)CC[C@@H](C(N)=O)NC(=O)[C@H](Cc2c[nH]c3ccccc23)NC(=O)[C@H](CCCNC(=N)N)NC(=O)[C@@H](Cc2cc(F)c(F)c(F)c2)NC(=O)[C@H](CCC(N)=O)NC1=O	47%
CC(=O)N[C@@H](CCCNC(=N)N)C(=O)N[C@H]1CCC(=O)NCCC[C@@H](C(N)=O)NC(=O)[C@H](Cc2c[nH]c3ccccc23)NC(=O)[C@H](CCCNC(=N)N)NC(=O)[C@@H](Cc2ccccc2C)NC(=O)[C@H](CC(N)=O)NC1=O	86%

# next compound below
Retrieve Emax measured for CC(=O)N[C@@H](CCCNC(=N)N)C(=O)N[C@H]1CCC(=O)NCCC[C@@H](C(N)=O)NC(=O)[C@H](Cc2c[nH]c3ccccc23)NC(=O)[C@H](CCCNC(=N)N)NC(=O)[C@@H](Cc2ccc(F)cc2)NC(=O)[C@@H]2C[C@@H](O)CN2C1=O and print it. 62%
